Assay: chemical genetic growth profiling, strain panel (AID 1159580);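 note: tested at 20 µM; growth read once vehicle control cultures reached saturation at 30 °C; 1 = growth at the plate median or of vehicle wells; lower values mean less growth of the strain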
Conditions: S. cerevisiae deletion strains, growth OD, strain wtn01, stronger effect = lower value
In all, about 5,500 compounds went through this assay and about 2,000 (36%) were called active. Roughly 18% stayed inconclusive and do not appear here. The list shows a part of the results.

- molecule: "COc1ccccc1/C=C\\C(=O)O"
  normalized growth: 1.03
- molecule: "CC(C)c1c(O)ccc2c1CCC1[C@@](C)(C=O)CCC[C@]21C (some centres not stated)"
  normalized growth: 0.304
- molecule: "CCc1cccc(CC)c1N(COC)C(=O)CCl"
  normalized growth: 1.01
- molecule: "COc1cc2occc2c2oc(=O)ccc12"
  normalized growth: 0.902
- molecule: "COC(=O)[C@@]1(C)CCC[C@]2(C)c3ccc(O)c(C(C)C)c3CCC12 (some centres not stated)"
  normalized growth: 0.812
- molecule: "COc1c2ccoc2cc2oc(=O)ccc12"
  normalized growth: 0.731
- molecule: "COc1c(C(C)C)oc2cc3oc(=O)ccc3cc12"
  normalized growth: 0.887

###

molecules and their reported normalized growth
Test: chemical genetic growth profiling, strain panel (AID 1159580);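 note: tested at 20 µM; growth read once vehicle control cultures reached saturation at 30 °C; 1 = growth at the plate median or of vehicle wells; lower values mean less growth of the strain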
Conditions: S. cerevisiae deletion strains, growth OD, locus YOR329C, strain SCD5, stronger effect = lower value
Among all 5,500 compounds or so, about 2,000 (36%) were called active. Another 18% or so got no clear call; they are omitted. Some of the results follow.

- structure_smiles_string: "O=C(Nc1ccccc1)Nc1ccc(Cl)cc1[N+](=O)[O-]"
  normalized growth: 0.978
- structure_smiles_string: "Cc1cc(Oc2ccc(C(F)(F)F)cc2NS(C)(=O)=O)cc(C)c1Cl"
  normalized growth: 0.984
- structure_smiles_string: "O=C1Nc2ccccc2/C1=C\\c1c(Cl)cccc1Cl"
  normalized growth: 0.969
- structure_smiles_string: "O=C1Nc2ccccc2/C1=C/c1ccc(C(F)(F)F)cc1Cl"
  normalized growth: 0.972
- structure_smiles_string: "O=[N+]([O-])c1cc(Cl)cc([N+](=O)[O-])c1Nc1ccccc1"
  normalized growth: 0.926
- structure_smiles_string: "CC(C)(C)C(=O)NC(=S)N/N=C\\c1cc(Cl)cc(Cl)c1O"
  normalized growth: 0.949
- structure_smiles_string: "Cc1cc(Cl)ccc1NNC(=O)c1sccc1Br"
  normalized growth: 0.913
- structure_smiles_string: "O=C1Nc2ccccc2/C1=C\\c1cccc([N+](=O)[O-])c1"
  normalized growth: 0.973
- structure_smiles_string: "FC(F)(F)c1cccc(NC(=S)NN=C2CCCCCC2)c1"
  normalized growth: 0.988
- structure_smiles_string: "Cc1cc(Cl)ccc1NNC(=O)c1sccc1Cl"
  normalized growth: 0.909
- structure_smiles_string: "COc1ccccc1NC(=S)N/N=C\\c1ccccc1O"
  normalized growth: 0.969
- structure_smiles_string: "CCOC(=O)N/N=C\\c1cc(Cl)cc(Cl)c1O"
  normalized growth: 0.943

###

Assay: chemical genetic growth profiling, strain panel (AID 1159580);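 note: tested at 20 µM; growth read once vehicle control cultures reached saturation at 30 °C; 1 = growth at the plate median or of vehicle wells; lower values mean less growth of the strain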
Conditions: S. cerevisiae deletion strains, growth OD, locus YKL101W, strain HSL1, stronger effect = lower value
The campaign covered roughly 5,500 compounds. About 2,000 (36%) were called active. Not shown: some 18% with an inconclusive outcome. This is one part of the list.
compounds and their reported normalized growth

- compound: "O/N=C(/c1ccc(Cl)cc1)c1cc2ccccc2o1"
  normalized growth: 0.916
- compound: "COCCCNC(=S)N/N=C\\c1cc(Br)ccc1O"
  normalized growth: 0.975
- compound: "O=C1/C(=C/c2ccccn2)CCc2ccccc21"
  normalized growth: 0.922
- compound: "O=S(=O)(CS(=O)(=O)Oc1ccc(Cl)c(Cl)c1)Oc1ccc(Cl)c(Cl)c1"
  normalized growth: 0.981
- compound: "Oc1c(Cl)cc(Cl)cc1/C=N\\NC(=S)Nc1cc(C(F)(F)F)cc(C(F)(F)F)c1"
  normalized growth: 0.12
- compound: "OC1(C(F)(F)F)CC(c2ccc3ccccc3c2)=NN1 (stereo unspecified)"
  normalized growth: 0.251
- compound: "O=[N+]([O-])c1cc(Cl)cc([N+](=O)[O-])c1Nc1ccccc1"
  normalized growth: 0.96
- compound: "FC(F)(F)c1ccc(N2CCc3ccccc3C2)c(NC(=S)Nc2cc(Cl)cc(Cl)c2)c1"
  normalized growth: 0.959
- compound: "CCCCNC(=S)N/N=C\\c1cc(Cl)cc(Cl)c1O"
  normalized growth: 0.385
- compound: "O=C1C(Cl)=C(Oc2cc(Cl)c(Cl)cc2Cl)C(=O)c2ccccc21"
  normalized growth: 0.38
- compound: "Cc1cc(Oc2ccc(C(F)(F)F)cc2NS(C)(=O)=O)cc(C)c1Cl"
  normalized growth: 0.961
